# METHOD_DESCRIPTION: Light generation from compounds following incubation with hydrogen peroxide in different pH solutions (D-cysteine conversion, LDR)
# Type: biochemical
# REPORTED_CONDITIONS: pH 10.4 Tris buffer, No H2O2, 60 minutes
Provide the recorded averaged RLUs (bioluminescence) for the entries that follow.

These recorded examples may help you get a feel for the data.
[[record]]
molecule = "CC1(C)OB(c2ccc(COc3ccc4nc(C#N)sc4c3)c3ccccc23)OC1(C)C [PBI 4480]"
result = "265,315 RLU"

[[record]]
molecule = "N#Cc1nc2ccc(OCc3ccc(B(O)O)c(Cl)c3)cc2s1 [PBI 4470]"
result = "819,416 RLU"

[[record]]
molecule = "CC1(C)OB(c2ccc(COc3ccc4nc(C#N)sc4c3)cc2)OC1(C)C [PBI 4472]"
result = "337,921 RLU"

[[record]]
molecule = "O=C(O)C1CSC(c2nc3ccc(OCc4ccc(B(O)O)cc4)cc3s2)=N1 (centres unmarked) [PBI 3048]"
result = "558,333 RLU"


Lab note: next molecule to report on.
Query: Requested field: averaged RLUs (bioluminescence). Item: N#Cc1nc2ccc(OCc3ccc(B(O)O)cc3)cc2s1 [PBI 4452]
Reply: 921,935 RLU
